# Tested on: T-47D breast
# test-description: NCI tumour cell line growth inhibition, 48 h
measured-property: TGI

compound: CN(C)CCCN=c1cc2c(=O)n(CCCN(C)C)c(=O)c3c(NCCCN(C)C)cc4c(O)n(CCCN(C)C)c(=O)c1c4c3-2
target-desc: T-47D breast
measured-property: TGI
result: 16.9 µM

compound: COc1cc([C@@H]2c3cc4c(cc3[C@H](OC(C)=O)[C@H]3COC(=O)[C@H]23)OCO4)cc(OC)c1OC
target-desc: T-47D breast
measured-property: TGI
result: > 100 µM

compound: O=C(CN1CCOCC1)CC(O)(C(F)(F)F)C(F)(F)F
target-desc: T-47D breast
measured-property: TGI
result: > 100 µM

compound: COc1ccc(-c2nc(N)c3ncn(C4OC(CO)C(O)C4O)c3n2)cc1 (stereo not given)
target-desc: T-47D breast
measured-property: TGI
result: > 100 µM

# input Given Cc1ccc(/C=N/Nc2nncc3ccccc23)s1 , state its recorded TGI.
# output > 100 µM

====

# Tested on: NCI-H23 lung
# test-description: NCI tumour cell line growth inhibition, 48 h
measured-property: GI50

molecule: CN(C)c1ccc2cc(-c3cc4c(oc3=O)-c3ccccc3OC4O)c(=O)oc2c1 (configuration not stated)
GI50: 1410 nM

# input Given NC(=O)c1cc(Cl)ccc1NC(=O)c1ccccc1-c1ccccc1 , state its recorded GI50.
# output 2010 nM

# input Given N#C/C(=C/C=C/c1ccccc1)S(=O)c1ccccc1 (configuration not stated) , state its recorded GI50.
# output 461 nM

# input Given O=C(Nc1ccc(Cl)cc1)c1cc2cc(F)ccc2cc1O , state its recorded GI50.
# output 929 nM

====

# Tested on: RXF 393 renal
# test-description: NCI tumour cell line growth inhibition, 48 h
Grouping key: TGI. Bins: 0 = under 7 µM, 1 = from 7 µM up to 40 µM, 2 = 40 µM and over

# input Please let me know in which category the item CCCCCCCC(=O)OCC1OC(n2cc(F)c(=O)[nH]c2=O)C(NC(=O)OCc2ccccc2)C(OC(=O)CCCCCCC)C1O (centres undefined) belongs.
# output 2

# input Please let me know in which category the item O=S1c2ccccc2N=C(c2ccc(Cl)cc2)CC1c1cccs1 (centres undefined) belongs.
# output 2

# input Please let me know in which category the item O=C(c1cc2c(C(F)(F)F)onc2c2ccccc12)C(F)(F)F belongs.
# output 1

====

# System: OVCAR-8 ovarian
# test-description: NCI tumour cell line growth inhibition, 48 h
Attribute: TGI

Illustrative cases are given below, each with its answer.
compound: CCCCCCCC(=O)OCC1OC(n2cc(F)c(=O)[nH]c2=O)C(NC(=O)OCc2ccccc2)C(OC(=O)CCCCCCC)C1O (stereo not drawn)
target-desc: OVCAR-8 ovarian
TGI: > 100 µM
--
compound: O=C1CCC2=C3C4CCCCC4C(=O)C4CCCC(OC2C1)C34 (stereo not drawn)
target-desc: OVCAR-8 ovarian
TGI: 23.7 µM
--
compound: CC(=O)O[C@H]1CCC2[C@@H]3CCC4Nc5c(cnn5-c5ccccc5)C[C@]4(C)C3CC[C@@]21C (stereo partly drawn)
target-desc: OVCAR-8 ovarian
TGI: 39.6 µM
--
compound: COc1cc(C(=O)Nc2c3ccccc3nc3ccccc23)cc(OC)c1OC
target-desc: OVCAR-8 ovarian
TGI: > 100 µM
--
compound: CC(C)c1cccc(C(C)C)c1N=C(N)C#N
target-desc: OVCAR-8 ovarian
TGI: > 100 µM

# input Given COc1ccc(C[C@H]2COC(=O)[C@@H]2Cc2ccc(O)cc2)cc1OC , state its recorded TGI.
# output > 100 µM

# input Given OCCN=C1c2ccccc2C2C(c3ccccc31)C1c3ccccc3C(=NCCO)c3ccccc3C21 (stereo not drawn) , state its recorded TGI.
# output > 100 µM

# input Given CC(=O)O[C@H]1C(=O)[C@@]2(C)[C@H]([C@H](OC(=O)c3ccccc3)[C@]3(O)C[C@H](OC(=O)[C@H](O)[C@@H](NC(=O)CC(C)C)c4ccccc4)C(C)=C1C3(C)C)[C@]1(OC(C)=O)CO[C@@H]1C[C@@H]2O , state its recorded TGI.
# output > 3.24 µM
